- SYSTEM UNDER TEST: T1, CRBN, Q96SW2;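 further: pooled lentiviral library of zinc finger degron-EGFP fusions in mCherry-positive Jurkat cells, FACS-sorted after compound exposure, with degron abundance counted by next-generation sequencing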
- T1 chain: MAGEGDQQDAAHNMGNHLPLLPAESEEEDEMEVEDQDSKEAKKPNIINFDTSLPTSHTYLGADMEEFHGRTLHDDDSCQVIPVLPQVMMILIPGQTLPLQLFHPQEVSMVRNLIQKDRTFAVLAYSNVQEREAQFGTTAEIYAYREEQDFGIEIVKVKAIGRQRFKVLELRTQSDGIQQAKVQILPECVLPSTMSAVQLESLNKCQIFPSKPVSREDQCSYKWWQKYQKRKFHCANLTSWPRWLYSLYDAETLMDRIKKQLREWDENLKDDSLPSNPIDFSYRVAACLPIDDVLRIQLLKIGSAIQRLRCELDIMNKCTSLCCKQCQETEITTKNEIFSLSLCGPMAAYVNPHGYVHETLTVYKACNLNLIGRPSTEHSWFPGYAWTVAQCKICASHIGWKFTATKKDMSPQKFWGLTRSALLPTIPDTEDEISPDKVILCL
- METHOD NOTES: log2 fold change of degron read counts, EGFP-low vs EGFP+ sorted cells (limma voom), compound-induced degradation; higher = more compound-induced degradation of the degron-EGFP fusion; degrons are variants of IKZF1/3 zinc finger 2; compound dose not given here
- CONDITION NOTES: Jurkat; 18 h; compound: compound 19 (5-tert-butyl-thalidomide)
The full ranking holds about 8,300 sequences; the median of “log2 fold change of degron read counts, EGFP-low vs EGFP+ sorted cells (limma voom), compound-induced degradation” is about -1.1, and the highest 2% start at about 3.2. The sample holds the highest values, similar sequences and a random draw of the others, so the mix is not that of the screen.
This section presents sequences with their documented log2 fold change of degron read counts values.
PROPERTY MEASURED: log2 fold change of degron read counts

1) FCCPVCGACFTQKGNLLRHIKL [46F_47C_49P_50V_52G_53A_54C_55F_67L_, Q9UKT9] : 2.37
2) FHCDVCGACFTQKGNLLRHIKL [46F_47H_49D_50V_52G_53A_54C_55F_67L_, Q9UKT9] : 0.383
3) FDCPVCGACFTQKGNLLRHIKL [46F_47D_49P_50V_52G_53A_54C_55F_67L_, Q9UKT9] : 1.39
4) FWCDVCGACFTQKGNLLRHIKL [46F_47W_49D_50V_52G_53A_54C_55F_67L_, Q9UKT9] : 2.78
5) FGCPVCGACFTQKGNLLRHIKL [46F_47G_49P_50V_52G_53A_54C_55F_67L_, Q9UKT9] : 3.88
6) FMCPVCGACFTQKGNLLRHIKL [46F_47M_49P_50V_52G_53A_54C_55F_67L_, Q9UKT9] : -0.624
7) FACPVCGACFTQKGNLLRHIKL [46F_47A_49P_50V_52G_53A_54C_55F_67L_, Q9UKT9] : 3.39
